test system: P-gp and BCRP; assay: P-gp and BCRP substrate assessment, bidirectional permeability in C2BBe1 cells; details: human, Caco-2, pH 7.4, AP-to-BL Recovery, C2BBe1 cells, 10 μM probe, batch used with Sol_2; single replicates
reportedProperty: recovery at 10 μM (%)

samplesmiles=C[C@H]1O[C@@H](O[C@H]2[C@@H](O)C[C@H](O[C@H]3[C@@H](O)C[C@H](O[C@H]4CC[C@@]5(C)[C@H](CC[C@@H]6[C@@H]5C[C@@H](O)[C@]5(C)[C@@H](C7=CC(=O)OC7)CC[C@]65O)C4)O[C@@H]3C)O[C@@H]2C)C[C@H](O)[C@@H]1O reportedproperty="recovery at 10 μM" quantitativereadout=77.9
